Molecular target: InhA (Mycobacterium tuberculosis, UniProt P9WGR1)
Construct: made in house; host or cells: E. coli
Sequence (P9WGR1 whole entry, looked up): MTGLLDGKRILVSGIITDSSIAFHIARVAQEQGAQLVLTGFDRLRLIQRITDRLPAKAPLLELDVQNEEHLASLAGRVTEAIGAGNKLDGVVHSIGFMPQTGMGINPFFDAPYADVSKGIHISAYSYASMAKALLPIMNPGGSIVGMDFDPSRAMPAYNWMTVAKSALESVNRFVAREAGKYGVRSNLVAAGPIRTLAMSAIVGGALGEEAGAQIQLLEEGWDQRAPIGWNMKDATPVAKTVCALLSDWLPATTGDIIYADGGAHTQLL
Test: Mycobacterium tuberculosis InhA Inhibition Assay (Enzyme Assay)
Type: biochemical
Conditions: IC50 value, 5 nM InhA, 50 μM DDCoA, 50 μM NADH, PIPES buffer pH 6.8, initial velocities of NADH consumption
Quantity: IC50

Worked cases, IC50 given:
- Compound: "Cc1csc(C(C)(O)c2nnc(Nc3ccn(Cc4cnn(C)c4)n3)s2)n1 (centres unmarked) [Example 25]"
  IC50: "0.248 to 1.24 µM"
- Compound: "COc1c(C)cnc(Cn2ccc(Nc3nnc(C(C)(O)c4nc(C)cs4)s3)n2)c1C (centres unmarked) [Example 31]"
  IC50: "0.219 to 1.09 µM"
- Compound: "Cc1csc([C@](C)(O)c2nnc(Nc3ccn(Cc4csc(C)n4)n3)s2)n1 (single isomer, unassigned) [Example 43]"
  IC50: "≤ 0.119 µM"

Query string: In one line, give reported IC50 of the entry Cc1csc(C(C)(O)c2nnc(Nc3ccn(Cc4c(F)cncc4F)n3)s2)n1 (centres unmarked) [Example 32] .
Result string: > 1.15 µM

Query string: In one line, give reported IC50 of the entry Cc1csc([C@@](C)(O)c2nnc(Nc3ccn(Cc4ncccc4F)n3)s2)n1 (single isomer, unassigned) [Example 42] .
Result string: 0.24 to 1.2 µM

Query string: In one line, give reported IC50 of the entry Cc1ccn(C(C)c2nnc(Nc3nn(Cc4csc(C)n4)c4ccccc34)s2)n1 (centres unmarked) [Example 46] .
Result string: > 1.15 µM

Query string: In one line, give reported IC50 of the entry Cc1cc(C)n(C(C)c2nnc(Nc3ccn(Cc4ccccn4)n3)s2)n1 (centres unmarked) [Example 5] .
Result string: 0.263 to 1.31 µM

Query string: In one line, give reported IC50 of the entry Cc1ccn(C(C)c2nnc(Nc3ccn(Cc4c(C)noc4C)n3)s2)n1 (centres unmarked) [Example 27] .
Result string: > 1.3 µM

Query string: In one line, give reported IC50 of the entry CCc1csc(C(C)(O)c2nnc(Nc3ccn(Cc4csc(C)n4)n3)s2)n1 (centres unmarked) [Example 47] .
Result string: ≤ 0.115 µM

Query string: In one line, give reported IC50 of the entry Cc1ccn([C@@H](C)c2nnc(Nc3ccn(Cc4ncccc4F)n3)s2)n1 (single isomer, unassigned) [Example 40] .
Result string: ≤ 0.13 µM

Query string: In one line, give reported IC50 of the entry Cc1csc([C@](C)(O)c2nnc(Nc3ccn(Cc4ncccc4F)n3)s2)n1 (single isomer, unassigned) [Example 41] .
Result string: ≤ 0.12 µM

Query string: In one line, give reported IC50 of the entry CCOc1cnc(Cn2ccc(Nc3nnc(C(C)(O)c4nc(C)cs4)s3)n2)c(F)c1 (centres unmarked) [Example 30] .
Result string: 0.217 to 1.08 µM

Query string: In one line, give reported IC50 of the entry Cc1csc(C(C)(O)c2nnc(Nc3ccn(Cc4ncc(F)cc4F)n3)s2)n1 (centres unmarked) [Example 12] .
Result string: 0.115 to 0.23 µM

Query string: In one line, give reported IC50 of the entry Cc1csc(C(C)(O)c2nnc(Nc3nn(Cc4csc(C)n4)c4ccccc34)s2)n1 (centres unmarked) [Example 45] .
Result string: 0.213 to 1.06 µM

Query string: In one line, give reported IC50 of the entry Cc1ccn([C@H](C)c2nnc(Nc3ccn(Cc4ncccc4F)n3)s2)n1 (single isomer, unassigned) [Example 39] .
Result string: 0.26 to 1.3 µM

Query string: In one line, give reported IC50 of the entry Cc1csc(C(C)(O)c2nnc(Nc3ccn(Cc4c(C)noc4C)n3)s2)n1 (centres unmarked) [Example 26] .
Result string: > 1.2 µM

Query string: In one line, give reported IC50 of the entry Cc1csc([C@@](C)(O)c2nnc(Nc3ccn(Cc4csc(C)n4)n3)s2)n1 (single isomer, unassigned) [Example 44] .
Result string: 0.238 to 1.19 µM

Query string: In one line, give reported IC50 of the entry Cc1csc(C(C)(O)c2nnc(Nc3ccn(Cc4[nH]ccc(=O)c4F)n3)s2)n1 (centres unmarked) [Example 33] .
Result string: > 1.15 µM

====

# key: entry, value: IC50
Biological target: InhA (Mycobacterium tuberculosis, UniProt P9WGR1)
Construct: made in house; host or cells: E. coli
Assay: Mycobacterium tuberculosis InhA Inhibition Assay (Enzyme Assay)
Format: biochemical
Conditions: 5 nM InhA, 50 μM DDCoA, 50 μM NADH, PIPES buffer pH 6.8, initial velocities of NADH consumption; read-out: IC50 value

Worked cases, IC50 given:
- Compound: "Cc1csc(C(C)(O)c2nnc(Nc3ccn(Cc4ccc5ccccc5n4)n3)s2)n1 (stereo not shown)"
  Quantity: "IC50"
  Result: "≤ 111 nM"
- Compound: "Cc1cc(C)n(C(C)c2nnc(Nc3ccn(C(C)c4ncccc4F)n3)s2)n1 (stereo not shown)"
  Quantity: "IC50"
  Result: "≤ 121 nM"
- Compound: "CCOc1cccc(Cn2ccc(Nc3nnc(C(C)n4nc(C)cc4C)s3)n2)n1 (stereo not shown)"
  Quantity: "IC50"
  Result: "≤ 118 nM"
- Compound: "Cc1cc(C)n(C(C)c2nnc(Nc3ccn(Cc4cccnc4F)n3)s2)n1 (stereo not shown)"
  Quantity: "IC50"
  Result: "≤ 125 nM"
- Compound: "Cc1cc(C)n(C(C)c2nnc(Nc3ccn(Cc4cccnc4)n3)s2)n1 (stereo not shown)"
  Quantity: "IC50"
  Result: "≤ 131 nM"

Query string: In one line, give reported IC50 of the entry Cc1csc(C(C)(O)c2nnc(Nc3ccn(Cc4cccc5cccnc45)n3)s2)n1 (stereo not shown) .
Result string: ≤ 111 nM

Query string: In one line, give reported IC50 of the entry Cc1csc(C(C)(O)c2nnc(Nc3ccn(Cc4cccc(F)n4)n3)s2)n1 (stereo not shown) .
Result string: ≤ 120 nM

Query string: In one line, give reported IC50 of the entry Cc1csc(C(C)c2nnc(Nc3ccn(Cc4ncccc4F)n3)s2)n1 (stereo not shown) .
Result string: ≤ 125 nM

Query string: In one line, give reported IC50 of the entry Cc1csc(C(C)(O)c2nnc(Nc3ccn(Cc4nccc5ccccc45)n3)s2)n1 (stereo not shown) .
Result string: ≤ 111 nM

Query string: In one line, give reported IC50 of the entry Cc1cc(C)n(C(C)c2nnc(Nc3ccn(Cc4cnc(C)c(Cl)c4)n3)s2)n1 (stereo not shown) .
Result string: ≤ 117 nM

Query string: In one line, give reported IC50 of the entry Cc1ccn(C(C)c2nnc(Nc3ccn(Cc4ncccc4F)n3)s2)n1 (racemic) .
Result string: ≤ 130 nM

Query string: In one line, give reported IC50 of the entry Cc1cccc(Cn2ccc(Nc3nnc(C(C)n4nc(C)cc4C)s3)n2)n1 (stereo not shown) .
Result string: ≤ 127 nM

Query string: In one line, give reported IC50 of the entry Cc1csc(C(C)(O)c2nnc(Nc3ccn(Cc4ncccc4F)n3)s2)n1 (racemic) .
Result string: ≤ 120 nM

Query string: In one line, give reported IC50 of the entry Cc1csc(C(C)(O)c2nnc(Nc3ccn(Cc4nccc(C)c4F)n3)s2)n1 (stereo not shown) .
Result string: ≤ 116 nM

Query string: In one line, give reported IC50 of the entry Cc1csc(C(C)(O)c2nnc(Nc3ccn(Cc4csc(C)n4)n3)s2)n1 (racemic) .
Result string: ≤ 119 nM

Query string: In one line, give reported IC50 of the entry Cc1cc(C)n(C(C)c2nnc(Nc3ccn(Cc4ncccc4F)n3)s2)n1 (stereo not shown) .
Result string: ≤ 125 nM

Query string: In one line, give reported IC50 of the entry Cc1cc(C)n(C(C)c2nnc(Nc3ccn(Cc4nccc(C)c4F)n3)s2)n1 (stereo not shown) .
Result string: ≤ 121 nM

Query string: In one line, give reported IC50 of the entry Cc1csc(C(C)(O)c2nnc(Nc3ccn(Cc4cc(C)on4)n3)s2)n1 (stereo not shown) .
Result string: 124 to 248 nM

Query string: In one line, give reported IC50 of the entry Cc1cc(C)n(C(C)c2nnc(Nc3ccn(Cc4ncc(Cl)cc4Cl)n3)s2)n1 (stereo not shown) .
Result string: ≤ 111 nM

Query string: In one line, give reported IC50 of the entry Cc1ccn(C(C)c2nnc(Nc3ccn(Cc4nccc(C)c4F)n3)s2)n1 (stereo not shown) .
Result string: ≤ 125 nM

Query string: In one line, give reported IC50 of the entry Cc1ccn(C(C)c2nnc(Nc3ccn(Cc4csc(C)n4)n3)s2)n1 (stereo not shown) .
Result string: 129 to 259 nM

Query string: In one line, give reported IC50 of the entry Cc1csc(C(C)(O)c2nnc(Nc3ccn(Cc4cn5ccccc5n4)n3)s2)n1 (stereo not shown) .
Result string: 114 to 228 nM

====

Target: InhA (Mycobacterium tuberculosis)
Construct: made in house; host or cells: E. coli
Test: Mycobacterium tuberculosis InhA Inhibition Assay (Enzyme Assay)
Assay type: biochemical
Conditions: IC50 value, 5 nM InhA, 50 μM DDCoA, 50 μM NADH, PIPES buffer pH 6.8, initial velocities of NADH consumption
pIC50: −log10 of the molar value.
# key: entry, value: pIC50

- Molecule: "Cc1ccn(C(C)c2nnc(Nc3cc(C)n(Cc4ncccc4F)n3)s2)n1 (centres unmarked)"
  Target Or System: "InhA (Mycobacterium tuberculosis)"
  Result: "≥ 6.90"
- Molecule: "Cc1csc(C(C)(O)c2nnc(Nc3ccn(Cc4csc(N)n4)n3)s2)n1 (centres unmarked)"
  Target Or System: "InhA (Mycobacterium tuberculosis)"
  Result: "5.92 to 6.62"
- Molecule: "Cc1ccn(C(C)c2nnc(Nc3ccn(Cc4cccnc4F)n3)s2)n1 (centres unmarked)"
  Target Or System: "InhA (Mycobacterium tuberculosis)"
  Result: "6.58 to 6.89"
- Molecule: "Cc1csc(C(C)(O)c2nnc(Nc3cc(C)n(Cc4ncccc4F)n3)s2)n1 (centres unmarked)"
  Target Or System: "InhA (Mycobacterium tuberculosis)"
  Result: "≥ 6.94"

Switching to the query record.
Query string: In one line, give reported pIC50 of the entry CCOc1ncccc1Cn1ccc(Nc2nnc(C(C)n3nc(C)cc3C)s2)n1 (centres unmarked) .
Result string: < 5.93
